Reference for the values: patent US20250154277A1

Molecular target: T1, human 5T4-His protein (human, UniProt Q13641 32-355)
T1 construct: also called recombinant 5T4 protein (human 5T4-his tag); human 5T4 protein; not shown: His tag
T1 sequence (looked up): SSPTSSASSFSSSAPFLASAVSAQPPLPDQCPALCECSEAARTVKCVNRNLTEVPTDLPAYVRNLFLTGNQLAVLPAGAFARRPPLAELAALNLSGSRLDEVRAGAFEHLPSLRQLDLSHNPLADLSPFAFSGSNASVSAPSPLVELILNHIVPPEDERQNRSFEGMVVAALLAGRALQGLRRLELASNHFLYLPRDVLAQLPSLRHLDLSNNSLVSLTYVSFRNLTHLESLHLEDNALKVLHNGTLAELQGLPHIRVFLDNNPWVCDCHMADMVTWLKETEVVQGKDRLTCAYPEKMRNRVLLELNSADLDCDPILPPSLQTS
Test: SPR Biacore, Protein A capture
valueKind: Kd (nM)
Give the quantity in nM, number only.

Hu14G12-4 (antibody, V domains shown, humanized) VH: EVQLVQSGAEVKKPGATVKISCKVSGYAFSSSWMNWVQQAPGKGLEWMGRIYREDGHTNYNGKFKGRVTITADTSTDTAYMELSSLRSEDTAVYYCATGGAMDYWGQGTLVTVSS VL: DIQMTQSPSSLSASVGDRVTISCRASQDISNYLNWYQQKPGKTVKLLIYYTSRLHSGVPSRFSGSGSGTDYTFTISSLQPEDIATYFCQQDNTLPWTFGGGTKLEIK has a reported Kd of 12.5

# Kd (binder: Hu14G12-32 (antibody, V domains shown, humanized) VH: QVQLVQSGAEVKKPGASVKVSCKASGYAFSSSWMNWVRQAPGQGLEWMGRIYREDGHTNYNGKFKGRVTMTADKSITTAYMELSRLRSDDTAVYYCANGGAMDYWGQGTLVTVSS VL: DIQMTQSPSTLSASVGDRVTITCRASQDISNYLNWYQQKPGKAPKLLIYYTSRLHSGVPSRFSGSGSGTEYTLTISSLQPDDIATYFCQQDNTLPWTFGGGTKVEIK ) is 2.76

Entry Hu14G12-12 (antibody, V domains shown, humanized) VH: EVQLVQSGAEVKKPGATVKISCKVSGYAFSSSWMNWVKQAPGKGLEWIGRIYREDGHTNYNGKFKGRATITADTSTTTAYMELSSLRSEDTAVYFCANGGAMDYWGQGTLVTVSS VL: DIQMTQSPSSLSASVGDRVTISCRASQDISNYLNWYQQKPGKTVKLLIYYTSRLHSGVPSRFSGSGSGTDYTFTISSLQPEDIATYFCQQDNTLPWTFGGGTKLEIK — recorded Kd = 2.39

GET /value?item= Hu14G12-2 (antibody, V domains shown, humanized) VH: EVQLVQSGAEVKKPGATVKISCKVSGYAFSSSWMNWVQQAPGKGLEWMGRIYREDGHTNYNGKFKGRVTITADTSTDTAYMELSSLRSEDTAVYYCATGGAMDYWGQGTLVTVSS VL: DIQMTQSPSSLSASVGDRVTITCRASQDISNYLNWYQQKPGKAPKLLIYYTSRLHSGVPSRFSGSGSGTDYTFTISSLQPEDIATYFCQQDNTLPWTFGGGTKLEIK &field=Kd returns 21.5

For record Hu14G12-5 (antibody, V domains shown, humanized) VH: EVQLVQSGAEVKKPGATVKISCKVSGYAFSSSWMNWVQQAPGKGLEWIGRIYREDGHTNYNGKFKGRVTITADTSTDTAYMELSSLRSEDTAVYFCANGGAMDYWGQGTLVTVSS VL: DIQMTQSPSSLSASVGDRVTITCRASQDISNYLNWYQQKPGKAPKLLIYYTSRLHSGVPSRFSGSGSGTDFTFTISSLQPEDIATYYCQQDNTLPWTFGGGTKLEIK the listed Kd is 5.88
